Overview of reported growth at 10 µM across a group of molecules:
# Tested on: SF-268
# Experiment summary: Antitumor activity against human SF268 cells assessed as cell growth at 10 uM after 48 hrs by sulforhodamine B assay
# Type: functional
# Details: SF-268, 48 h, read-out: Activity

Smiles structure	growth at 10 µM
CN1C/C(=C\c2ccc(Cl)cc2)C(=O)[C@]2(C1)[C@@H](c1ccc(Cl)cc1)CN(C)[C@@]21C(=O)N(C)c2ccccc21	83.6%
CN1C/C(=C\c2ccc(Cl)cc2)C(=O)[C@]2(C1)[C@@H](c1ccc(Cl)cc1)CN(C)[C@@]21C(=O)Nc2ccccc21	60.6%
CN1C/C(=C\c2ccc(-c3cccs3)cc2)C(=O)[C@]2(C1)[C@@H](c1ccc(-c3cccs3)cc1)CN(C)[C@@]21C(=O)N(C)c2ccccc21	72.4%
COc1ccc(/C=C2\CN(C)C[C@@]3(C2=O)[C@@H](c2ccccc2)CN(C)[C@@]32C(=O)Nc3ccccc32)cc1	61.8%

Data credit: ChEMBL document CHEMBL1138574
